Assay: CLint (intrinsic clearance) assay, microsomal incubation
Type: in vitro ADME, Human
Conditions: human, liver microsomes, pH 7.4, human liver microsomes 0.5 mg/mL protein, NADPH, 37° C., up to 30 min
Procedure: 2. CLint (Intrinsic Clearance) Assay A Tecan Genesis workstation (RWS ASY 150/8) was used to perform the microsomal incubations. Analysis was carried out using a Waters ACQUITY UPLC system coupled to an ABSciex API3000 mass spectrometer. […] The metabolic stability of each compound was determined by measurement of the change in LC-MS/MS peak area over time. […] The intrinsic clearance (CLint) of each compound was then calculated according to the formula: CLint(μL/min/mg protein)=k1000/protein concentration. […]
REPORTED METRIC: microsomal CLint at 0.8 μM (µL/min/mg)

C[C@@H]1NC(=O)OC12CCN(c1c(Cl)cncc1-c1ccc3c(c1)CS(=O)(=O)N3C)CC2: 35
C#Cc1cncc(-c2ccc3c(c2)CS(=O)(=O)N3C)c1N1CCC2(CCNC2=O)CC1: 66
CC(C)n1cc(-c2ccc(-c3cncc(C(F)(F)F)c3N3CCC4(CC3)CNC(=O)O4)cc2)cn1: 16
O=C1NCC2(CCN(c3c(Cl)cncc3-c3ccc(-c4cnn([C@H]5CCC[C@@H]5O)c4)cc3)CC2)O1 [Example 62]: 37
Cn1cc(-c2ccc(-c3cncc(Cl)c3N3CCC4(CCNC4=O)CC3)cc2)cn1: 83
COC(=O)Nc1n[nH]c2cc(-c3cncc(Cl)c3N3CCC4(CCNC4=O)CC3)ccc12: 49
O=C1NCC2(CCN(c3c(Cl)cncc3-c3ccc4oc(=O)[nH]c4c3)CC2)O1: 16
CC(C)(C)N1Cc2cc(-c3cncc(Cl)c3N3CCC4(CCNC4=O)CC3)ccc2S1(=O)=O: 30
O=C1NCC2(CCN(c3c(Cl)cncc3-c3ccc(-c4cnn([C@@H]5CCC[C@H]5O)c4)cc3)CC2)O1: 29
CN1c2ccc(-c3cncc(Cl)c3N3CCC(C#N)(CCO)CC3)cc2CS1(=O)=O: 88
Cn1cc(-c2ccc(-c3cncc(Cl)c3N3CCC4(CC3)C(=O)NN=C4C(F)(F)F)cc2)cn1: 43
CN1c2ccc(-c3cncc(Cl)c3N3CCC4(CC3)C[C@H](C(F)(F)F)NC4=O)cc2CS1(=O)=O: 42

* * *

Experiment: CLint (intrinsic clearance) assay, microsomal incubation
Format: in vitro ADME, Human
Conditions: human, liver microsomes, pH 7.4, human liver microsomes 0.5 mg/mL protein, NADPH, 37° C., up to 30 min
Kindly return Met if reported microsomal CLint at 0.8 μM is no lower than 40 µL/min/mg; return Not met if it is lower.

CN1C(=O)Cc2cc(-c3cncc(Cl)c3N3CCC4(CC3)CNC(=O)O4)ccc21 [Example 11]: Not met
CC(C)n1cc(-c2ccc(-c3cncc(Cl)c3N3CCC4(CC3)NCNC4=O)cc2)cn1 [Example 78]: Not met
CN1c2ccc(-c3cncc(Cl)c3N3CCC4(CC3)CC(=O)NC4=O)cc2CS1(=O)=O [Example 87]: Not met
CC1=NC(=O)C2(CCN(c3c(Cl)cncc3-c3ccc(-c4cnn(C)c4)cc3)CC2)N1 [Example 20]: Not met
Cn1ncc2cc(-c3cncc(Cl)c3N3CCC4(CC3)CC(=O)NC4=O)ccc21 [Example 1]: Not met
CC(C)n1cc2cc(-c3cncc(Cl)c3N3CCC4(CC3)CNC(=O)O4)ccc2n1 [Example 94]: Not met
CN1c2ccc(-c3cncc(Cl)c3N3CCC(C#N)(CO)CC3)cc2CS1(=O)=O [Example 85]: Met
Cn1nc(N)c2ccc(-c3cncc(Cl)c3N3CCC4(CC3)CNC(=O)O4)cc21 [Example 27]: Met
